target: Ribosomal protein S6 kinase beta-1 (Homo sapiens) (UniProt P23443); settings: at 1 µM;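 further: values are mean inhibition of p70S6K1, measured as part of the GSK PKIS panel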
Sequence (P23443 whole entry, looked up): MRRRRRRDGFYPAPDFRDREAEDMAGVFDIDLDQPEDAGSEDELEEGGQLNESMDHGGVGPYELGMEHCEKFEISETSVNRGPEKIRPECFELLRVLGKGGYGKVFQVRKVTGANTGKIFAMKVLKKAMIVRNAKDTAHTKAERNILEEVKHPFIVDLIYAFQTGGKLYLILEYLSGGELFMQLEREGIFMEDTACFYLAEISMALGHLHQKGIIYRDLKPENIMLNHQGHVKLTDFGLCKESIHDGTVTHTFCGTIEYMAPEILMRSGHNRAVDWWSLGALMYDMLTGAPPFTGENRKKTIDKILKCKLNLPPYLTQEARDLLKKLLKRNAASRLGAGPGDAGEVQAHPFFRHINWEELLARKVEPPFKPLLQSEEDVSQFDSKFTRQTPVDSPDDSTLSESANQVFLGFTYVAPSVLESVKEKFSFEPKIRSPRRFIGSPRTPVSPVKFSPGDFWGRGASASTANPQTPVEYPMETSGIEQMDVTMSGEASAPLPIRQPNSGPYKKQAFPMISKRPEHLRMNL
measurement.name: inhibition (%)
Dear colleague, please return just the value in %, with no unit written.

Consider the reported inhibition for these compounds:
                               entry_smiles  measurement_name  display_unit  recorded_result
0            Cc1cccc(Nc2ncc(-c3ccccc3)o2)c1        inhibition             %             3.89
1  CCn1cc(-c2ccnc3[nH]ccc23)c(-c2cccc(NC(=O)Nc3ccc(OCc4ccccc4)cc3)c2)n1        inhibition             %             -0.6
2          CNC(=O)c1cncc(/C=C/c2ccccc2Cl)c1        inhibition             %             0.23
3  CC(=O)NCc1cccc(C#Cc2cncnc2Nc2ccc(OCc3cccc(F)c3)c(Cl)c2)c1        inhibition             %             0.74
4  O=C(O[C@H]1CN[C@H](C#Cc2cc3ncnc(Nc4ccc(Cc5ccccc5)cc4)c3s2)C1)N1CCOCC1        inhibition             %             1.38
5  CS(=O)(=O)CCNCc1ccc(-c2ccc3ncnc(Nc4ccc(OCc5ccccc5)c(C(F)(F)F)c4)c3c2)o1        inhibition             %             1.16

inhibition lookup needed for CNC(=O)c1cccc(C#Cc2cncnc2Nc2ccc(OCc3cccc(F)c3)c(Cl)c2)c1 , thanks.
0.77

inhibition lookup needed for CN1CCC(n2cnc(-c3ccc(F)cc3)c2-c2ccnc(Nc3ccccc3)n2)CC1 , thanks.
1.05

inhibition lookup needed for COc1ccc(-c2nn3ncccc3c2-c2ccnc(Nc3ccc4c(c3)OCCO4)n2)cc1 , thanks.
-0.95

inhibition lookup needed for COc1ccc2c(-c3ccnc(Nc4cccc(OC(F)(F)F)c4)n3)cnn2n1 , thanks.
3.7

inhibition lookup needed for Fc1cccc(COc2ccc(Nc3ncnc4sc(-c5ccco5)cc34)cc2Cl)c1 , thanks.
1.47

inhibition lookup needed for c1cc(-c2cnn3nc(N4CCOCC4)ccc23)nc(NC2CC2)n1 , thanks.
3.7

inhibition lookup needed for COC(=O)Nc1nc2ccc(S(=O)(=O)c3ccc(NC(=O)Nc4cc(C(F)(F)F)ccc4F)cc3)cc2[nH]1 , thanks.
0.71

inhibition lookup needed for Fc1ccc(-c2cc(-c3c[nH]nc3-c3ccccn3)ccn2)cc1 , thanks.
2.4

inhibition lookup needed for CCc1nn2ncccc2c1-c1ccnc(NC2CC2)n1 , thanks.
2.51

inhibition lookup needed for CC(=O)Nc1cccc(C#Cc2cncnc2Nc2ccc(OCc3cccc(F)c3)c(Cl)c2)c1 , thanks.
2.07

inhibition lookup needed for COc1cccc(-c2c[nH]c3c(N/N=C/c4ccncc4)ncnc23)c1 , thanks.
8.54
